Listing of recorded pKi by entry.
biological target: 5-hydroxytryptamine receptor 2B (Homo sapiens, UniProt P41595); test: Compound was tested for its binding affinity against cloned human 5-hydroxytryptamine 2B receptor in HEK 293 cells using [3H]5-HT; type: cell-based, HEK293
Sequence (P41595 whole entry): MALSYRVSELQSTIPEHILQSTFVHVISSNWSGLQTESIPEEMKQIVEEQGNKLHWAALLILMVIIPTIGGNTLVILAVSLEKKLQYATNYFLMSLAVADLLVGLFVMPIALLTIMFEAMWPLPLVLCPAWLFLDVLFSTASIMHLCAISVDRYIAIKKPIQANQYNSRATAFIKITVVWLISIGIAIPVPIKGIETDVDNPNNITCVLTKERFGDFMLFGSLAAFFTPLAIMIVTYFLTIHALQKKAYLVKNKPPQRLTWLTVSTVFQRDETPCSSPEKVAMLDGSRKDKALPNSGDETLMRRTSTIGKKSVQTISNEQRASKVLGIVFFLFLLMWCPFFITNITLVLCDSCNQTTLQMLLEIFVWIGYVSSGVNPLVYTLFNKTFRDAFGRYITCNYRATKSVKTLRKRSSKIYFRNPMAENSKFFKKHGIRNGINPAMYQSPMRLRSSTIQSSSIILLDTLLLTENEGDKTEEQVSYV
pKi: −log10 of the molar value.

{"smilesText": "COc1ccc(NS(=O)(=O)c2sc3ccc(Cl)cc3c2C)cc1N1CCNCC1", "operator": "<", "pKi": 5.40}
{"smilesText": "COc1ccc(NS(=O)(=O)c2sc3ccc(Cl)cc3c2C)cc1N1CCN(C)CC1", "operator": "=", "pKi": 6.00}
{"smilesText": "COc1ccc(NS(=O)(=O)c2ccc(Br)cc2)cc1N1CCN(C)CC1", "operator": "=", "pKi": 6.20}
